Data provenance: patent US20150376269A1

Recorded 50 nM SRA + 5 uM mutant apoL1 peptide binding (RU) values for a group of binders are listed next.
TARGET_OR_TEST_SYSTEM: T1, serum resistance-associated protein (SRA) from Trypanosoma brucei rhodesiense, recombinant SRA (SEQ ID NO: … (Trypanosoma brucei rhodesiense, UniProt O96637 31-274))
T1 construct: also called SRA protein
T1 sequence: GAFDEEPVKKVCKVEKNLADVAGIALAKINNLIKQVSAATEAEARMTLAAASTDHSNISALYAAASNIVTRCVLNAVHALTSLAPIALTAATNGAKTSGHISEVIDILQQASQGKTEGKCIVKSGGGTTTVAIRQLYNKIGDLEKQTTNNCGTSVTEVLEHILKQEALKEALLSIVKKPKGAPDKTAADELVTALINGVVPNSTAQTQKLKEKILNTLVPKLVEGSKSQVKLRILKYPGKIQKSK
EXPERIMENT: SPR, mAb captured, pH 4.5, 25C; competitor biotin-mutant apoL1 peptide
RECORDED_METRIC: 50 nM SRA + 5 uM mutant apoL1 peptide binding (RU)

BINDER	OUTPUT_UNIT	READING
H1H10058P (antibody, V domains shown, Fully human antibody with human IgG1 Fc (prefix H1H)) VH: EVQLVESGGGLVQPGGSLRLSCAASGFTFNDFFMSWVRQAPGKGLEWVANLNQDGSERHYVDSVKGRFTISRDNAKNSLSLQMNSLRVEDTAVYYCAREGGDSWGQGTLVTVSS VL: DIVMTQSPDSLAVSLGERVTINCKSSQSILYSANNKDYLAWFHQKPGQPPKLLIYWASIRESGVPDRISGSGSGTDFTLTISSLQAEDVAVYYCQQYYLFPPTFGQGTKVEIK	RU	56
H2aM10204N (antibody, V domains shown, Chimeric antibody, human variable domains and mouse constant domains (mouse Fc, prefix H2aM); also called H2M10204N) VH: QVHLVQSGAEVKKPGSSVKVSCKASGGTFSNYAISWVRQAPGQGLEWMGGIIPFSGSATYAQNFQGRITITTDESTRTAYMELNGLRSEDTAVYYCARWFSGYGGDFDYWGQGTLVTVSS VL: AIQMTQSPSSLSASVGDRVTITCRASQDIKNDLGWYQQKPGKAPKLLIYAASTLQSGVPSRFSGSGSGTHFTLTLSSLQPEDFATYFCLQDYTFPRTFGQGTKVEIK	RU	128
H2aM10201N (antibody, V domains shown, Chimeric antibody, human variable domains and mouse constant domains (mouse Fc, prefix H2aM); also called H2M10201N) VH: QVQLLESGGGVVQPGKSLRLSCVASGSIFSIYGMNWVRQAPGKGLEWVASVSSDGSAKFYADSVKGRFTISRDNSNDTLFLQMTSLRAEDTAVYYCAKTLWNYLFDSWGQGTLVTVSS VL: ENVLTQSPDTLSLSPGERATLSCRASQSITSNYLAWYQQKPGQTPRLLISFTSRRATGIPDRFSGSGSGTVFTLTISRLEPEDFAVYYCQQYGTSLTFGGGAKVEIR	RU	108
H1H10061P (antibody, V domains shown, Fully human antibody with human IgG1 Fc (prefix H1H)) VH: QVQLVESGGGVVQPGNSLRLSCAASGFTFSAYGMHWVRQAPGKGLEWVAVISYDGSNEFYADSVKGRFTIFRDNSKNMLYLQMNSLRVEDTSIYYCAKDRGLGVYYFFYGMDVWGQGTTVTVSS VL: DIVMTQSPDSLVVSLGERATINCKSSQSLLYSSSNNNYLTWYQQKPGRPPKLLIYWASTRESGVPDRFSGSGSGTDFTLTISSLQAEDVAIYYCQQNYITPLTFGGGTKVEIK	RU	75
H1H10059P (antibody, V domains shown, Fully human antibody with human IgG1 Fc (prefix H1H)) VH: QVQLVQSGAEVKKPGASVKVSCKAAGFTFIGYYIHWVRQAPGQGLEWMGWINSNSGDKDSAPKFQDRVTMTRDTSISTAYMELSRLRSDDTAVYFCAREGYNFGHFDYWGQGTLVTVSS VL: DIVMTQTPLSSPVTLGQPASISCRSSQSLVHSDGNTYLSWLQQRPGQPPRLLIYKISNRLSGVPDRFSGSGAGTDFTLKISRVEGEDVGVYYCMQGTQFPRTFGQGTKVEIK	RU	65
H1H10026P (antibody, V domains shown, Fully human antibody with human IgG1 Fc (prefix H1H)) VH: QVQLVESGGGVVQPGRSLRLSCEASGFTFSIYGMHWVRQAPGKGLEWVAVISYDGTNRYYADSVKGRFTISRDNSKNTLYLQMNSLRAEDTAVYYCAKVNIWNFLFDYWGQGTLVTVSS VL: EIVLTQSPGTLSLSPGERATLSCRASQSVSGNYLAWYQQKPGQAPRLLIYGPSSRATGIPDRFSGSGSGTDFTLTISRLEPEDFAVYYCQQYGTSLTFGGGTKVEIK	RU	106
H1H10041P (antibody, V domains shown, Fully human antibody with human IgG1 Fc (prefix H1H)) VH: QVQLVQSGAEVRKPGSSMKVSCATSGGNFRSYTINWVRQAPGQGLEWMGGVFPAVGTRIYAQKFQGRVTISTDESTTIAYMELNSLVPEDTAVYYCARSFNSPFDFWDQGTLVTVSS VL: AIQMTQSPSSLSASVGDRVTLTCRASQDIRNDLHWFQQTPGKAPRLLIYSASNLQSGVPSRFSGTGSGTDFTLTFSSLQPEDFATYYCLQDYSYPYTFGQGTKLEIK	RU	83
H2aM10285N (antibody, V domains shown, Chimeric antibody, human variable domains and mouse constant domains (mouse Fc, prefix H2aM); also called H2M10285N) VH: QVQLVQSGAEVKKPGSSVKVSCKASGGTFTNFAISWVRQAPGLGLEWMGGIIPFVGTATYEQKFQGRVSITADESTRTAYMELSSLRYDDTAVYYCARWFSGSGGDFDYWGQGTLVTVSS VL: AIQMTQSPSSLSASVGDRVTITCRASQGIGNDLGWYQQRRGTAPKLLIYAASSLQSGVPSRFSGSGSGTDFTLTISSLQPEDFATYYCLQDFTFPRTFGQGTKVEIK	RU	111
H2bM10093N (antibody, V domains shown, Chimeric antibody, human variable domains and mouse constant domains; also called H2aM10093N; H2M10093N) VH: EVQLVESGGGLVKPGGSLRLSCVASGFTLSGYSMNWVRQAPGKGLEWVSSISTSSSYIYYADSVQGRFTISRDNAKNSLYLQMNSLRAEDTAVYYCVRKGANWIYFDYWGQGTLVTVSS VL: DIQMTQSPSSVSASVGDRVTITCRASQGISSLLAWFQQKPGKAPNLLIYAASSLQSGVPSRFSGSGSGTDFTLTISSLQPEDFATYYCQQAKSFPFTFGPGTKVDIK	RU	122
H2aM10200N (antibody, V domains shown, Hybridoma-derived chimeric antibody, human variable domains and mouse constant domains (mouse Fc, prefix H2aM); also called H2M10200N) VH: QVQLVQSGAEVKKPGSSVKVSCKASGGTFSSYAISWVRQAPGQGLEWMGGIIPFFGTATYAQKFQGRVTITTDESTRTVYMELSSLRYEDTAVYYCARWYSGYGGDFDYWGQGTLVTVSS VL: AIQMTQSPSSLSASVGDRVTITCRASQGIRNDLGWFQQKPGKAPKLLIYAASSLQSGVPSRFSGSGSGTDFTLSISSLQPEDFATYYCLQDYSYPRTFGQGTKVEIK	RU	150
